Each record here notes measured SGCB cell-surface expression functional score (log10).
B1: library; numbered along this chain (parent)
chain: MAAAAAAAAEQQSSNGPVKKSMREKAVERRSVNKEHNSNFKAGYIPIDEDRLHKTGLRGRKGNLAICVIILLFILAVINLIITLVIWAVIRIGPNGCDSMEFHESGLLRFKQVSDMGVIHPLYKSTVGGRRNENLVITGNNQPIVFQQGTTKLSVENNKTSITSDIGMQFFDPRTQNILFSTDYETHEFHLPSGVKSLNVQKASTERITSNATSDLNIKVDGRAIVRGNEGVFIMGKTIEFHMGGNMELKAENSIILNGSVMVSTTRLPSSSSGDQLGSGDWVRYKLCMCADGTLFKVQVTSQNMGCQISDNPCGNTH

Variants of: B1
measurement.notes: SGCB cell-surface expression functional score (HA stain, bin4 vs bin1, normalised to synonymous) (log10 ratio); higher = more cell-surface SGCB (functional)
Form: value (number only, do not type unit).

G280T: -0.11
R267Q: -0.244
M305K: 0.09
I166V: 0.13

Tell me SGCB cell-surface expression functional score (log10) reported for S193K
0.33

Tell me SGCB cell-surface expression functional score (log10) reported for A251T
0.52

Tell me SGCB cell-surface expression functional score (log10) reported for T301H
-0.15

Tell me SGCB cell-surface expression functional score (log10) reported for R284W
0.31

Tell me SGCB cell-surface expression functional score (log10) reported for R51A
0.1

Tell me SGCB cell-surface expression functional score (log10) reported for M289G
-1.37

Tell me SGCB cell-surface expression functional score (log10) reported for Q201P
-0.23

Tell me SGCB cell-surface expression functional score (log10) reported for F102L
-0.5

Reference source: the supplement of paper PMC10266784
